Molecular target: UniProt:P08253
Assay: Inhibition of MMP2
// reported IC50 per item
Provide the reading as a plain figure in µM.

QUERY: Look up and report measured IC50 (UniProt:P08253) for the following compound: N=C(NCCC[C@H](NC(=O)c1ccccc1I)C(=O)NO)N[N+](=O)[O-]
RESULT: 176

QUERY: Look up and report measured IC50 (UniProt:P08253) for the following compound: NC(=N[N+](=O)[O-])NCCC[C@H](NS(=O)(=O)c1ccccc1)C(=O)NO
RESULT: 100

QUERY: Look up and report measured IC50 (UniProt:P08253) for the following compound: COc1cccc(C(=O)N[C@@H](CCCNC(=N)N[N+](=O)[O-])C(=O)NO)c1
RESULT: 151

QUERY: Look up and report measured IC50 (UniProt:P08253) for the following compound: N=C(NCCC[C@H](NC(=O)CCc1ccccc1)C(=O)NO)N[N+](=O)[O-]
RESULT: 1640

Continuing:
QUERY: Look up and report measured IC50 (UniProt:P08253) for the following compound: N=C(NCCC[C@H](NC(=O)c1ccc(Cl)c(Cl)c1)C(=O)NO)N[N+](=O)[O-]
RESULT: 194

QUERY: Look up and report measured IC50 (UniProt:P08253) for the following compound: N=C(NCCC[C@H](NC(=O)c1cccc(Cl)c1)C(=O)NO)N[N+](=O)[O-]
RESULT: 89.2

QUERY: Look up and report measured IC50 (UniProt:P08253) for the following compound: NC(=N[N+](=O)[O-])NCCC[C@H](NC(=O)c1ccccc1Cl)C(=O)NO
RESULT: 150

QUERY: Look up and report measured IC50 (UniProt:P08253) for the following compound: Cc1ccccc1C(=O)N[C@@H](CCCNC(=N)N[N+](=O)[O-])C(=O)NO
RESULT: 2070

QUERY: Look up and report measured IC50 (UniProt:P08253) for the following compound: NC(=N[N+](=O)[O-])NCCC[C@H](NC(=O)c1ccc(Br)c([N+](=O)[O-])c1)C(=O)NO
RESULT: 236

---

Target: UniProt:P15145
Sequence (P15145 whole entry): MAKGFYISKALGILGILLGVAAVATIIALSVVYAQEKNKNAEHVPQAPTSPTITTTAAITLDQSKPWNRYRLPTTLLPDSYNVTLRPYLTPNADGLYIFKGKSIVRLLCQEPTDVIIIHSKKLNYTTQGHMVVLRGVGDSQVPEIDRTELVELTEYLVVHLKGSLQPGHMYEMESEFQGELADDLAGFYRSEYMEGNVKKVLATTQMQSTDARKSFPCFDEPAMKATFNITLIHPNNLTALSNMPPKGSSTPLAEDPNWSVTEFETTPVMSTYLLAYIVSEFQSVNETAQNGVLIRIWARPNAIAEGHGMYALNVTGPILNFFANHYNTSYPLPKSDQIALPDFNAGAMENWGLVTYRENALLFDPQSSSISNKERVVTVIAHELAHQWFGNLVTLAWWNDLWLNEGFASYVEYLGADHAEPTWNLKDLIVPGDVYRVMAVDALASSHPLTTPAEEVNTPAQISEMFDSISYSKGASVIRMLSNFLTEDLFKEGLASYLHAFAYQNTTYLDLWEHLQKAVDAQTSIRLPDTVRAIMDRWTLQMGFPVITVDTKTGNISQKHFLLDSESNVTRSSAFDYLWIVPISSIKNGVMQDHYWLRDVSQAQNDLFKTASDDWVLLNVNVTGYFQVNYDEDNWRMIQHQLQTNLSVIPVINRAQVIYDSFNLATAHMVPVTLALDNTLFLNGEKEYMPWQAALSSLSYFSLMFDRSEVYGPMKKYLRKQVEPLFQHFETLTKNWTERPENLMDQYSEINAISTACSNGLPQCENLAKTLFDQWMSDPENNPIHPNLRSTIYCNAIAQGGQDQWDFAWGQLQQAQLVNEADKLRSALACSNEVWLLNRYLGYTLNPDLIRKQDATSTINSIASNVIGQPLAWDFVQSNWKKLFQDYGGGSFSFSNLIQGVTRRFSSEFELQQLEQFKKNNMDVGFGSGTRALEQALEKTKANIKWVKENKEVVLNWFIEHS
Exam item: assign TRUE to entries whose IC50 is below 60 µM and FALSE to entries at or above 60 µM. Note that a value of exactly 60 µM receives FALSE.

Please review the entries below; each comes with its answer.
QUERY: Is IC50 strictly under 60 µM for the entry N=C(NCCC[C@H](NC(=O)c1ccc([N+](=O)[O-])cc1)C(=O)NO)N[N+](=O)[O-] ?
RESULT: TRUE

QUERY: Is IC50 strictly under 60 µM for the entry NC(=N[N+](=O)[O-])NCCC[C@H](NC(=O)c1ccc(Br)c([N+](=O)[O-])c1)C(=O)NO ?
RESULT: TRUE

QUERY: Is IC50 strictly under 60 µM for the entry N=C(NCCC[C@H](NC(=O)CCc1ccccc1)C(=O)NO)N[N+](=O)[O-] ?
RESULT: FALSE

Continuing:
QUERY: Is IC50 strictly under 60 µM for the entry Cc1ccccc1C(=O)N[C@@H](CCCNC(=N)N[N+](=O)[O-])C(=O)NO ?
RESULT: FALSE

QUERY: Is IC50 strictly under 60 µM for the entry COc1cc(C(=O)N[C@@H](CCCNC(N)=N[N+](=O)[O-])C(=O)NO)cc(OC)c1OC ?
RESULT: FALSE

---

Notes on IC50 obtained with UniProt:P08253.
Provide the reading as a plain figure in µM.

Consider the worked cases shown below.
QUERY: Look up and report measured IC50 (UniProt:P08253) for the following compound: N=C(NCCC[C@H](NC(=O)c1ccc(Cl)cc1)C(=O)NO)N[N+](=O)[O-]
RESULT: 238

QUERY: Look up and report measured IC50 (UniProt:P08253) for the following compound: NC(=N[N+](=O)[O-])NCCC[C@H](NC(=O)c1ccc2ccccc2c1)C(=O)NO
RESULT: 85.5

QUERY: Look up and report measured IC50 (UniProt:P08253) for the following compound: Cc1cccc(C(=O)N[C@@H](CCCNC(=N)N[N+](=O)[O-])C(=O)NO)c1
RESULT: 623

Moving on to the next compound.
QUERY: Look up and report measured IC50 (UniProt:P08253) for the following compound: NC(=N[N+](=O)[O-])NCCC[C@H](NC(=O)c1ccc(Br)cc1)C(=O)NO
RESULT: 484

---

Notes on IC50 obtained with 72 kDa type IV collagenase (Homo sapiens).
Sequence (P08253 whole entry): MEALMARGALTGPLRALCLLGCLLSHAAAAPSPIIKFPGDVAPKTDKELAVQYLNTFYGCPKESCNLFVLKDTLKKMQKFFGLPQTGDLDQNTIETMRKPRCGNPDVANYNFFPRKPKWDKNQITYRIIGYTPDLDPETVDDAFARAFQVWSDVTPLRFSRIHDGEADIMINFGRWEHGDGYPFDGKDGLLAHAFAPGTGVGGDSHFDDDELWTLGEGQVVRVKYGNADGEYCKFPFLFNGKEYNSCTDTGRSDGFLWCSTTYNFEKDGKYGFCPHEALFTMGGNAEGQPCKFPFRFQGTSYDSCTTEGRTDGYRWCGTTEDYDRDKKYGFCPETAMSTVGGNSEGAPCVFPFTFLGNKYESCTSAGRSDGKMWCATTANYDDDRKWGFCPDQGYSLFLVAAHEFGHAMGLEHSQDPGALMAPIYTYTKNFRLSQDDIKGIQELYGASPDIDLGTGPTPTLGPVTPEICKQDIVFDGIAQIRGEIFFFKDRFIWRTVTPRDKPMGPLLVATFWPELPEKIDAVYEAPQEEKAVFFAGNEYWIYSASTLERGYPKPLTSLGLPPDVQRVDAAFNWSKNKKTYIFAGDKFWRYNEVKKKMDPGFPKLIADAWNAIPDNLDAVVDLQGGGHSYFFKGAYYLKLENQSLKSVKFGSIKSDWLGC
Provide the reading as a plain figure in µM.

Consider the worked cases shown below.
QUERY: Look up and report measured IC50 (72 kDa type IV collagenase (Homo sapiens)) for the following compound: NC(=N[N+](=O)[O-])NCCC[C@H](NC(=O)c1cccs1)C(=O)NO
RESULT: 226

QUERY: Look up and report measured IC50 (72 kDa type IV collagenase (Homo sapiens)) for the following compound: COc1ccccc1C(=O)N[C@@H](CCCNC(=N)N[N+](=O)[O-])C(=O)NO
RESULT: 253

QUERY: Look up and report measured IC50 (72 kDa type IV collagenase (Homo sapiens)) for the following compound: COc1ccc(C(=O)N[C@@H](CCCNC(N)=N[N+](=O)[O-])C(=O)NO)cc1OC
RESULT: 346

QUERY: Look up and report measured IC50 (72 kDa type IV collagenase (Homo sapiens)) for the following compound: COc1cc(C(=O)N[C@@H](CCCNC(N)=N[N+](=O)[O-])C(=O)NO)cc(OC)c1OC
RESULT: 41.1

Continuing:
QUERY: Look up and report measured IC50 (72 kDa type IV collagenase (Homo sapiens)) for the following compound: COc1ccc(C(=O)N[C@@H](CCCNC(N)=N[N+](=O)[O-])C(=O)NO)cc1
RESULT: 322
